molecular target: CYP3A4 (Homo sapiens, UniProt P08684); experiment: Ratio of IC50 for human CYP3A4 expressed in supersomes by coincubation study to IC50 for human CYP3A4 expressed in supersomes by preincubation study; details: supersomes expressing human CYP3A4, read-out: Ratio IC50
Sequence (P08684 whole entry): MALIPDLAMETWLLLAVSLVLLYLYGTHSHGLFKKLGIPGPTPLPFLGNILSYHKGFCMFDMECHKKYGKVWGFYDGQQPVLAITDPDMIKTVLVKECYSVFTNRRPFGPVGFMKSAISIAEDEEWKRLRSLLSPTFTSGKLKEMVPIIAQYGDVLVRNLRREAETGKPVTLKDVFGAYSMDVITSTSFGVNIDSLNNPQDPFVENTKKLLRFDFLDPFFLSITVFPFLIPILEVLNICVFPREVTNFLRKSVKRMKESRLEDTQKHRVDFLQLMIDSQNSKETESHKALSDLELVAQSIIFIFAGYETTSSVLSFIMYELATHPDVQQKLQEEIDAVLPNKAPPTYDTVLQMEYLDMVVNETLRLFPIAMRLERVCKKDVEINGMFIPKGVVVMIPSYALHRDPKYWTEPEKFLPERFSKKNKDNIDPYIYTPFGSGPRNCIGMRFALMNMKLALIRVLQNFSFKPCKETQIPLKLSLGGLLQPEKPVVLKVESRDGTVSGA

Compound	IC50 shift
C=CC[C@@H]1/C=C(\C)C[C@H](C)C[C@H](OC)[C@H]2O[C@@](O)(C(=O)C(=O)N3CCCC[C@H]3C(=O)O[C@H](/C(C)=C/[C@@H]3CC[C@@H](O)[C@H](OC)C3)[C@H](C)[C@@H](O)CC1=O)[C@H](C)C[C@@H]2OC [TACROLIMUS ANHYDROUS]	5
